# experiment: Solubility of ceftobiprole determined by HPLC
# Assay type: physicochemical
# particulars: water, freeze-dried analogue without SBE-β-CD, reconstituted in water; read-out: Solubility of Ceftobiprole for Freeze-Dried Samples in a Preliminary Study Without SBE-β-CD

{"smiles": "Nc1nc(/C(=N/O)C(=O)N[C@@H]2C(=O)N3C(C(=O)O)=C(/C=C4\\CCN([C@@H]5CCNC5)C4=O)CS[C@H]23)ns1", "solubility": "2.1 mg/mL"}

---

# experiment: Solubility of ceftobiprole determined by HPLC
# Format: physicochemical
# particulars: water, without freeze-drying in acidic environment; read-out: water solubility of ceftobiprole
assayMetric: solubility (µg/mL)

{"smiles": "Nc1nc(/C(=N/O)C(=O)N[C@@H]2C(=O)N3C(C(=O)O)=C(/C=C4\\CCN([C@@H]5CCNC5)C4=O)CS[C@H]23)ns1", "readoutNumber": 50}
